Recorded Human Primary Hepatocyte Editing % 500 by entry
Tested on: PCSK9 gene
Assay: PCSK9 gRNA/SpCas9 editing in primary human hepatocytes (Tables 2, 4)
Format: cell-based
Conditions: 500 ng/RNA/mL; SpCas9 mRNA MS002 1:1 by weight
Experimental: In set of experiments, PCSK9 gRNAs were co-transfected with an equivalent amount (1:1 ratio by weight) of in vitro transcribed commercially available SpCas9 mRNA MS002 purchased from TriLink Biotechnologies into primary human hepatocytes at 2500, 500, or 100 ng/RNA/mL and processed as described in detailed methods. Extracted genomic DNA was analyzed for gene editing at the target site with next-generation sequencing of PCR amplicons generated around the target sites. […]
In the oligonucleotide strings, read from the 5' end, every base follows the letter of its sugar. An asterisk marks phosphorothioate; unmarked linkages are phosphodiester. Other units and linkages are bracketed, terminal groups are in braces. A string of capitals states the bases alone. m = 2'-O-methyl; r = 2'-OH (RNA)
Field format: number, assumed %, no unit text.

Recorded Human Primary Hepatocyte Editing % 500, per entry:
Molecule | Human Primary Hepatocyte Editing % 500, %
GA221: PCSK9 gRNA; protospacer TCATGGCACCCACCTGGCAG (SEQ ID NO: 215) (nucleic acid, sugars from the 5' end m3 r94 m3, linkages s3 o93 s3 (s phosphorothioate, o phosphodiester), T or U not given here) guide: UCAUGGCACCCACCUGGCAGGUUUUAGAGCUAGAAAUAGCAAGUUAAAAUAAGGCUAGUCCGUUAUCAACUUGAAAAAGUGGCACCGAGUCGGUGCUUUU | 7.48
GA195: PCSK9 gRNA; protospacer ACCACCGGGAAATCGAGGGC (SEQ ID NO: 189) (nucleic acid, sugars from the 5' end m3 r94 m3, linkages s3 o93 s3 (s phosphorothioate, o phosphodiester), T or U not given here) guide: ACCACCGGGAAAUCGAGGGCGUUUUAGAGCUAGAAAUAGCAAGUUAAAAUAAGGCUAGUCCGUUAUCAACUUGAAAAAGUGGCACCGAGUCGGUGCUUUU | 13.3
GA247: PCSK9 gRNA; protospacer CCTCGCCAGGCGCTGGCAGG (SEQ ID NO: 240) (nucleic acid, sugars from the 5' end m3 r94 m3, linkages s3 o93 s3 (s phosphorothioate, o phosphodiester), T or U not given here) guide: CCUCGCCAGGCGCUGGCAGGGUUUUAGAGCUAGAAAUAGCAAGUUAAAAUAAGGCUAGUCCGUUAUCAACUUGAAAAAGUGGCACCGAGUCGGUGCUUUU | 0.17

Please list Human Primary Hepatocyte Editing % 500 recorded for the molecule GA158: PCSK9 gRNA; protospacer GCTAGCCTTGCGTTCCGAGG (SEQ ID NO: 152) (nucleic acid) guide: mG*mC*mU*rArGrCrCrUrUrGrCrGrUrUrCrCrGrArGrGrGrUrUrUrUrArGrArGrCrUrArGrArArArUrArGrCrArArGrUrUrArArArArUrArArGrGrCrUrArGrUrCrCrGrUrUrArUrCrArArCrUrUrGrArArArArArGrUrGrGrCrArCrCrGrArGrUrCrGrGrUrGrCrU*mU*mU*mU
6.55

Please list Human Primary Hepatocyte Editing % 500 recorded for the molecule GA167: PCSK9 gRNA; protospacer TCAGCTCCAGGCGGTCCTGG (SEQ ID NO: 161) (nucleic acid, sugars from the 5' end m3 r94 m3, linkages s3 o93 s3 (s phosphorothioate, o phosphodiester), T or U not given here) guide: UCAGCUCCAGGCGGUCCUGGGUUUUAGAGCUAGAAAUAGCAAGUUAAAAUAAGGCUAGUCCGUUAUCAACUUGAAAAAGUGGCACCGAGUCGGUGCUUUU
25.87

Please list Human Primary Hepatocyte Editing % 500 recorded for the molecule GA230: PCSK9 gRNA; protospacer AGTAGAGGCAGGCATCGTCC (SEQ ID NO: 224) (nucleic acid, sugars from the 5' end m3 r94 m3, linkages s3 o93 s3 (s phosphorothioate, o phosphodiester), T or U not given here) guide: AGUAGAGGCAGGCAUCGUCCGUUUUAGAGCUAGAAAUAGCAAGUUAAAAUAAGGCUAGUCCGUUAUCAACUUGAAAAAGUGGCACCGAGUCGGUGCUUUU
12.83
